This section presents sequences with their documented folding enthalpy values.
procedure summary: folding enthalpy; higher = less favourable; fluorescence melt of hairpins on a sequencing array, two-state fit
measurement conditions: sodium 0.088 M

{"columns": ["sequence text", "unit annotation", "folding enthalpy"],
 "data": [
  ["GCGTTAGCGAAAGCTCGC (((..(((....))))))", "kJ/mol", -52.3],
  ["GCCTCGCGAAAGCTACGC ((.(.((....)).).))", "kJ/mol", -24.6],
  ["GTTCTCGGAAACGAGGAC ((.((((....)))).))", "kJ/mol", -120],
  ["GGGCCAGCGAAAGCTCCC (((..(((....))))))", "kJ/mol", -60.6],
  ["GTGCGCCGAAAGGCTCAC (((.(((....))).)))", "kJ/mol", -122],
  ["GAGCAAGAAATTGCTC ((((((....))))))", "kJ/mol", -125],
  ["GATCACGCCCGTGATC ((((((....))))))", "kJ/mol", -166],
  ["GCCTCCGAAAGGAGTGGC ((((((....)))..)))", "kJ/mol", -71.4],
  ["GGTGTAGGAAACCACACC (((((.(....).)))))", "kJ/mol", -137],
  ["GGTTGCCGAAAGGCACC (((.(((....))))))", "kJ/mol", -60.5],
  ["GCCCATCGAAAGATTGGC (((.(((....))).)))", "kJ/mol", -114],
  ["GCAGAGCGAAAGCGCCGC ((.(.((....)).).))", "kJ/mol", -118]
]}

====

procedure summary: folding enthalpy; higher = less favourable; fluorescence melt of hairpins on a sequencing array, two-state fit
measurement conditions: sodium 0.088 M
Classification field: Yes = folding enthalpy at or over -10 kcal/mol; No = folding enthalpy under -10 kcal/mol.

{"columns": ["sequence text", "class label"],
 "data": [
  ["GATCAGATACTGATC ((((((...))))))", "No"],
  ["GGTTTGCCGAAAGGCACC (((..(((....))))))", "Yes"],
  ["GCGCACGAAAGTGCACGC ((((((....)))..)))", "No"],
  ["GCCGCGCGAAAGCGTAGC ((..(((....)))..))", "No"],
  ["GATCACCGATGTGATC ((((((....))))))", "No"],
  ["GTTCGCGAAAGCGAAAAC ((((((....)))..)))", "Yes"],
  ["GATCCGATCCGGATC ((((((...))))))", "No"],
  ["GCCCACGAAAGTGCGGC ((((((....))).)))", "No"],
  ["GCAACGCGAAAGCGTGC (((.(((....))))))", "No"],
  ["GATCCCAATGGGGATC ((((((....))))))", "No"],
  ["GATCGTTTTACGATC ((((((...))))))", "No"],
  ["GGCCGAGGAAACCCGGCC (((((.(....).)))))", "No"]
]}

====

procedure summary: folding enthalpy; higher = less favourable; fluorescence melt of hairpins on a sequencing array, two-state fit
measurement conditions: sodium 0.088 M
Consider the reported folding enthalpy of an entry and match it to a band in bucket 1 (below -30 kcal/mol), bucket 2 (-30 kcal/mol to below -20 kcal/mol), bucket 3 (-20 kcal/mol or more)

{"columns": ["sequence text", "class label"],
 "data": [
  ["GCATCCGAAAGGAGTTGC ((((((....)))..)))", "bucket 3"],
  ["GACTGCGAAAGCAGGTC ((((((....))).)))", "bucket 3"],
  ["GAAAAGGGAAACCTTTCC (.(((((....))))).)", "bucket 3"],
  ["GATCCCGAAAGGGCATC ((((((....))).)))", "bucket 3"],
  ["GTTTGGCGAAAGCCAAC (((.(((....))))))", "bucket 3"],
  ["GGACGTCGAAAGACATCC (((.(((....))).)))", "bucket 2"],
  ["GTATGGGGAAACCCATAC (((((((....)))))))", "bucket 1"],
  ["GATCCGTTGGCGGATC ((((((....))))))", "bucket 1"],
  ["GATCCGAGATCGGATC ((((((....))))))", "bucket 1"],
  ["GTGCTAGGAAACTAACAC (((.(((....))).)))", "bucket 2"],
  ["GCAGACGAAAGTCATGC ((((((....))).)))", "bucket 2"],
  ["GGACCGGCGAAAGCCTCC (((..(((....))))))", "bucket 3"],
  ["GGCCACGAAAGTGAAGCC ((((((....)))..)))", "bucket 1"],
  ["GGGCGGGGAAACCCGCTC (.(((((....))))).)", "bucket 3"],
  ["GTCCCCGAAAGGGATGAC ((((((....)))..)))", "bucket 3"],
  ["GTACGGGGAAACCTGTAC ((((.((....)).))))", "bucket 1"],
  ["GGTTCGGGAAACCGGACC (((.(((....))).)))", "bucket 1"],
  ["GCAGTGCGAAAGCAGTGC (((.(((....))).)))", "bucket 1"],
  ["GCATTGCGAAAGCTAAGC ((.(.((....)).).))", "bucket 3"],
  ["GGAGGGTCGAAAGACTCC (((..(((....))))))", "bucket 3"],
  ["GATCTATTGATAGATC ((((((....))))))", "bucket 2"],
  ["GGAGACGAAAGTCGGTCC ((((((....)))..)))", "bucket 3"],
  ["GGTCACGAAAGTGCACC ((((((....))).)))", "bucket 2"],
  ["GACTGCGAAAGCAGTGTC ((((((....)))..)))", "bucket 3"],
  ["GGGCACGCGAAAGCGCCC (((..(((....))))))", "bucket 3"],
  ["GTACTCGAAAGAGACTAC ((((((....)))..)))", "bucket 3"],
  ["GATCCCGGCTGGGATC ((((((....))))))", "bucket 1"],
  ["GGTCCCGAAAGGGTTACC ((((((....)))..)))", "bucket 3"],
  ["GCTCGGACGAAAGTCAGC (((..(((....))))))", "bucket 3"],
  ["GGTACCGAAAGGTGAACC ((((((....)))..)))", "bucket 3"],
  ["GGCGAAGAAATTCGCC ((((((....))))))", "bucket 1"],
  ["GCTAGAACGAAAGTTAGC (((..(((....))))))", "bucket 2"],
  ["GAACTCGGAAACGAATTC (((.(((....))).)))", "bucket 2"],
  ["CGTCACGGAAACGTTACG (((.(((....))).)))", "bucket 1"],
  ["GATCTATAGTAGATC ((((((...))))))", "bucket 2"],
  ["GACAGTGGAAACACCGTC (((.(((....))).)))", "bucket 2"],
  ["CGTCGCGGAAACGCTACG (((.(((....))).)))", "bucket 2"],
  ["GACCCTCCGAAAGGAGTC (((..(((....))))))", "bucket 3"],
  ["GTAGGCGAAAGCCCTAC ((((((....))).)))", "bucket 3"],
  ["GCACGGCGAAAGCGGAGC ((.(.((....)).).))", "bucket 3"],
  ["GTTGTTTCGAAAGAAAAC (((..(((....))))))", "bucket 1"],
  ["GGGTGCGAAAGCAGGCCC ((((((....)))..)))", "bucket 3"],
  ["GTTGTCGAAAGACAAAC ((((((....))).)))", "bucket 3"],
  ["GAGACGGAAACGTCTC ((((((....))))))", "bucket 1"],
  ["GCACGAACGAAAGTTTGC (((..(((....))))))", "bucket 3"],
  ["GCTAGCCGAAAGGCCAGC (((.(((....))).)))", "bucket 2"],
  ["GCGATAAATCGC ((((....))))", "bucket 3"],
  ["GCCCTGCGAAAGCGTGGC (((..((....))..)))", "bucket 2"]
]}

====

procedure summary: folding enthalpy; higher = less favourable; fluorescence melt of hairpins on a sequencing array, two-state fit
measurement conditions: sodium 0.088 M
Consider the reported folding enthalpy of an entry and match it to a band in interval 1 (below -30 kcal/mol), interval 2 (-30 kcal/mol to below -10 kcal/mol), interval 3 (-10 kcal/mol or more)

{"columns": ["sequence text", "class label"],
 "data": [
  ["GAATAGGGAAACCTATTC (((((((....)))))))", "interval 1"],
  ["TCCGAGAAATCGGA (((((....)))))", "interval 2"],
  ["GGTGCTGGAAACGGTACC (((.(.(....).).)))", "interval 1"],
  ["GTGACCGAAAGGTTCCAC ((((((....)))..)))", "interval 3"],
  ["GGCTTCCGAAAGGACGCC (((.(((....))).)))", "interval 1"],
  ["GCAAAGCGAAAGCCGTGC (((..((....))..)))", "interval 2"],
  ["GCTTGAGCGAAAGCTAGC (((..(((....))))))", "interval 2"],
  ["GATAATGGAAACATTACC (.(((((....))))).)", "interval 3"],
  ["GCGCCACGAAAGTGCCGC (((.(((....))).)))", "interval 2"],
  ["GTATCCGAAAGGATCTAC ((((((....)))..)))", "interval 2"],
  ["GAGCTACGAAAGTACTC (((.(((....))))))", "interval 2"]
]}

These entries and their values trace back to the array DNA melting data of Ke et al. (doi:10.1101/2024.01.08.574731).
